Below is a list of entries, each paired with its recorded CC50 at 144 h value.
Assay: Cytotoxicity in PHH natural infection assay (Cell Counting Kit-8)
Format: cell-based
Conditions: human; HBV-infected PHH, CCK8, compound refreshed two times with 72-hour interval
Express the result in µM but write the number alone.

| compound | unit of measure | CC50 at 144 h |
| --- | --- | --- |
| [H][C@]1(NC(=O)c2ccnc(S(=O)(=O)C3CC3)c2)C[C@]2(C1)C[C@]([H])(c1nc3cc(Cl)ccc3s1)C2 (single isomer, unassigned) | µM | 11.6 |

Continue with the next compound.
Q: Return CC50 at 144 h (reported value) for this compound: O=C(NC1CC2(C1)CC(c1nc3cc(Cl)ccc3s1)C2)c1ccc(S(=O)(=O)NC2CCC2)o1 (stereo not shown)
A: 21.9
